B1: TRIM43 (parent)
chain: FCDMDKSLLCLLCSNSQEHGAHKH

variants of: B1; assay: protein stability index of a GFP-peptide fusion (GPS, HEK-293T) (PSI 1-6); higher = more stable; conditions: c terminus: a fixed tail appended;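 further: lentivirally expressed fusions sorted by FACS into six bins by GFP to DsRed ratio, PSI derived from sequencing read proportions per bin multiplied by bin number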
PROPERTY MEASURED: protein stability index

[[record]]
mutation_list = "K6D"
observed_measurement = 2.96

[[record]]
mutation_list = "L9S"
observed_measurement = 1.88

[[record]]
mutation_list = "E18N"
observed_measurement = 1.87

[[record]]
mutation_list = "Q17H"
observed_measurement = 1.76

[[record]]
mutation_list = "E18V"
observed_measurement = 2.28

[[record]]
mutation_list = "H22F"
observed_measurement = 2.17

[[record]]
mutation_list = "E18C"
observed_measurement = 2.3

[[record]]
mutation_list = "H22N"
observed_measurement = 1.75

[[record]]
mutation_list = "L11E"
observed_measurement = 2.93

[[record]]
mutation_list = "H24G"
observed_measurement = 1.77

[[record]]
mutation_list = "A21I"
observed_measurement = 1.47

